ASSAY: soluble on expression in E. coli; label from the status in PepcDB or PDB records
ENDPOINT: soluble on expression in E. coli

[[record]]
input_sequence = "MGSDKIHHHHHHMQPSNSWVCLSALEKQVVAATASLDNRGLAYADGFFTTMGVINGQILWAEYHHQRLISHAKALQLDLDSWSLLSTLQVHAQQHRQGMLKLIITRAAQDIRGYGYTPSECGSACESWLKSLAMTVSTAEQLSLNDECSIPVQPVSTAVCLSSQIACLPPSIAGLKTLNRLDNVLASAELQGIKTRVLASNGEGDISEGLLRDMTGRWVEGTMSNVFYQLSDSRLVDSPSSEMINIPNNKSNTNYLTQGQWYTPSMAQSGVAGVMRQVIIDELSTTKYPVVVRSLQDKDLPQLQQLFFCNALRGIMPMASLTLLSGEMVGF"
value_observed = "not soluble"

[[record]]
input_sequence = "MARLTVHTLETAPEAAKARVEAVLQNNGFIPNLIGVLSNAPEALAFYQEVGKLNAANSLTAGEVEVIQIIAARTNQCGFCVAGHTKLATLKKLLSEQSVKAARALAAGEFDDAKLGALAAFTQAVMAKKGAVSDEELKAFFDAGYNQQQAVEVVMGVALATLCNYVNNLGQTEINP"
value_observed = "not soluble"

[[record]]
input_sequence = "MGSDKIHHHHHHMTTQSFIATKEHRRFAEFADAVRRQHTIGICYGHAGIGKTLSAKRYANWHKAENLIEQWGPRDDADYQIYAALARARTVFYTPAVLTSPKQIHAELEHISTRVSICVDQHLEKIGKKTGPHTRTGKHVELLIIDESERLNATALELLRDRYDRDNIALILIGMPGIEKWFSRYAQLYSRVGFAHEYRPLAQEELNFVLERRWHKLGQTLDPEDFTDAQAIAAVARITRGNFRLIDRLFTQIERVMKINELSTITDDVIEAARSTLVIGIS"
value_observed = "not soluble"

[[record]]
input_sequence = "MGSDKIHHHHHHMAAIPTYKLYGEKTEVSGEFLLHCETLFSRSSLYRFEIDLHRHENFLQILYISEGQGDATLDGKVIAITPPAAIVVPPLFSHGFRFSRSIKGMIITVLPAALPLAVRTSLKQALPLPLHMPLEGEPCAIEISLLMERIADEYAGAKPGRNGLLEAYLATVVLLLARQAAPDASQDLMTLTANDRRMEKLAALIAANFRSHKTAAFYAREMGLSPTHLNRLAKAGTGATLQQLIARKQLEIAQQELIFSQTSIQAIALNHGFTDPAYFTRFFTRETGLTPRAWRLAERQKLQNLSDRAQAEISAATASE"
value_observed = "not soluble"


* * *

ASSAY: soluble on expression in E. coli; label from the status in PepcDB or PDB records
ENDPOINT: soluble on expression in E. coli

[[record]]
input_sequence = "RYWQLEVAPRRRADPPEALLELLDRSVTARMQGGPVGSMLSGGLDSGTVSMLASRRSEGPLPVISMKFDDHPEIDESEWIAKIHAAGRFRPVWIDGRDAHGGDVAELLAEQGGPFFAPNLATSRWLYRRAAEAGVEILLDGHGGDEVISFGVARLTELASEAQWRTLWQSTAAVSDLFGGSRREFFLNSMAQGAQSRWLRAMARRLNVGAKRDPRAWRQALHPALVARTGLVQRVQEAAGARKRGATDDIRQHVATLTAPRYPTTLEVLDRAATLCGIEPRYPFLERRLIEHCVAQPAAAKFHDGMTRALLRDAVRGLLPDEVRLRTSKTNFTPNVRARMLTSWGDNLNRIAGCNPGRIGDYVDLAVIREGIQRLRAGEPDQPALLQTMRAVVLDEWLR"
endpoint = "soluble on expression in E. coli"
value_observed = "not soluble"

[[record]]
input_sequence = "MGSDKIHHHHHHMVNSLTTPEPQTLKPGVKAPVQETLLTPRFYTTDFDAVANLDISANEAEIRAVVEELRADYNRHHFVRDEEFKQSWDHITGEKRRAFIDFLERSCTSEFSGFLLFKELSRRIKSRNPLLAEAFEFMARDEARHAGFLNKSMSDLNLSLDLNYLTKNRTYTFFPPEWVIYTVYLSEKIGYWRYILVHQHMQEHPEYQFYPLFRKFESWCQDENRHGDFFKALLRSQPQLWKNWKARLWVRFFLLTVFVTHTMTVFERASFYESIGIHPRKYNNRVIQETNNTSARAFPLILNTNHPLFFWRLEQCWENNMKLAAIKNNKLPNFVKFFQRIPPATAIFWNMLRLFLIKPIDTEATRGTVL"
endpoint = "soluble on expression in E. coli"
value_observed = "not soluble"


* * *

ASSAY: soluble on expression in E. coli; label from the status in PepcDB or PDB records
ENDPOINT: soluble on expression in E. coli

[[record]]
input_sequence = "MVGIQVQEVMTDKYAKIDISAPLSEAIGIIEKEDPDLILVFDDNVYKGVLTQDLIIRSHLKWDPTKAKVRDIYKPAPVVKPTDDLSHAAKLLLETDLRSLPVGENKAEIIGVISDIALLERVVAEEFGKKKVEEFMTKDVITLTPDDTVAKALAVMRDHGISRIPIVNEEGKLEGLVTLHDLILRFIKPRFKAQTGELVGEKIPPFSMKLREAMIRGVITILPTATVREAVATMKDNDIDGLVVVDEGNKVVGILTVKDLLLPISRMVEKEAKFYLQLGGDASALSDFTRERIINDIKKFVDGYSDLLGNEGIIYLYIRRFNEKFRGVHLYQARMRIVTDKGVFIARGETWGAIQAVHDAIRAIERQLLQKAELERDIRYAKRFIEKLELWR"
value_observed = "soluble"

[[record]]
input_sequence = "MGHHHHHHGGHMSLTTSTPSNRILVVMSSAAQIPLQDGKNHNTGYFLNEFGVPAKRLTDAGYELVIATPRGSVPGMDHNSDHDMFFKNKEEHNEIKAFVGDVLSNTTIQTTEAVAAEGTQAYAALFLPGGHAPMADLMADPALGEILRQFHAAAKPTALICHAPTALLAAQADPVAFQKGMEAGEQPSAQDFTYQGYRVTVFANDEEEATEKTFEAPMLYYPADALTQGGAQVENGEAMKPNVVRDRELLTGQNPFSDEPFVAQLLEMLGEGGS"
value_observed = "soluble"


* * *

ASSAY: soluble on expression in E. coli; label from the status in PepcDB or PDB records
ENDPOINT: soluble on expression in E. coli

Worked cases, soluble on expression in E. coli given:
[[record]]
input_sequence = "MAKKKKEILFCDYYEDWVETYKVGAIEDVTLNKYYVAARQLRDICPKLLMSDFSRKDYQLIMNEYGKTHEKQTAKDFHHHIKAAILDAYHDGLLKSDPTYRAVIKGKEPGKKKLEHHHHHH"
value_observed = "soluble"

[[record]]
input_sequence = "MIKPYDFVPFLPYKPYDDVKAERGDGKIPIRVKTLTPVHIPSGEYTVSGDNSMIYKEFVKVNGVPVIPGTSFKGCIRSIAESISYSCLYIFDKQKKELIPEFKLEAQEKDHEKNKEQRNENGKKCIVSDMFGMPGQKSKIVFNDLRGVPNKYKLEIKGIPTSFRPNPDAEYYLENGKYKGYKFYKHGINGIQPKGNMLCEFAAENSLFEGEIIYKNLTEEQIRLLCFSLGLSGDINPKIGYGKNYFYGSIEVTSDAKWVEKAKQYKNIEKDDIKNNINLIISILNYKNAVTSVD"
value_observed = "soluble"

[[record]]
input_sequence = "SMAGCVVIVGSGVIGRSWAMLFASGGFQVKLYDIEQQQIRNALENIRKEMKLLEQAGSLKGSLSVEEQLSLISGCPNIQEAVEGAMHIQECVPEDLELKKKIFAQLDSIIDDRVILSSSTSCLMPSKLFAGLVHVKQCIVAHPVNPPYYIPLVELVPHPETAPTTVDRTHALMKKIGQCPMRVQKEVAGFVLNRLQYAIISEAWRLVEEGIVSPSDLDLVMSEGLGMRYAFIGPLETMHLNAEGMLSYCDRYSEGIKHVLQTFGPIPEFSRATAEKVNQDMCMKVPDDPEHLAARRQWRDECLMRLAKLKSQV"
value_observed = "soluble"

[[record]]
input_sequence = "FSDFIANHIFMESRCEGIIRITAISLPFMCIHNCLSNYYYSQKESFLPASSQLVEQLVRIGTIILYVRIKNVSTISIADAVTGNIFGEFAAATYCAIPLFFRSIHNKSMMQKLSCSLREYRYIVKYAFPINANQTVLHLLEGAEAILIPAILCMHGLTKDNAISQFGILTGM"
value_observed = "not soluble"

[[record]]
input_sequence = "VKFLTVNDDILSMPQARNFCASAGGYLADDLGDDKNNFYSSIAANTQFWIGLFKNSDGQFYWDRGQGINPDLLNQPITYWANGEPSNDPTRQCVYFDGRSGDKSKVWTTDTCATPRPFICQKHRYDSDHKPNTIGDA"
value_observed = "soluble"

[[record]]
input_sequence = "MSIIIENSGLFSSFQDFGRKGYEHEGVIPSGALDELAHEIANRLVANDKNEATLEMTQKMATIRFTEPALIALTGGNFKAETEHMKIYPNKLYLINEGETLKFNETSRTSRVYLAVGGGFKLEKWLHSASTDFNVEIGGFEGRKLKKGDEIELKHHYSQRHLKLFENLSDKRTTDWGIDGYALSFNYVSDVFHVIKNKGTEDFKKEATRRFTTAEYSVSSKTNRVGMVLDGPQIKAYYDDMPAHQSVKRGTIQVKRDGTPIVLLNDHYTLGSYPQIGTIASYHLTKLAQKPQGSKLKFQFIDIETAEKNLIKYSNWLNQLFHGIEHRMQLEMLKMAGDPLEHHHHHH"
value_observed = "not soluble"

[[record]]
input_sequence = "MAHHHHHHMSIDAGLCDRYVVFLDIDGVLLPVPKFTFGGGNLSGRCAQTLKRLIAALGGRDKVTLVLSSTWRNHPVMVDRLNTFMQKEAGDGIPVVSERTPNGTVLMSSVTYYADDPSEQRLVRDRVDEVYRWLHTHITDHPEAIGGRWFAIDDMQLDVDERMRGHFLHTQTDVGITEADVDTACAMIASHPSPTEAYAAAVAALADPALKAEEVEIQRVLQSRLEAQLAATTAELTEAQEKMAALSAEKKDLIKELAEKQRSIDDMRYRLAVYDFSKRYPCLATAVELAGTKSGAERRAMDAAIRTFVTLLMDRKELQKKMRSEAKKVKQAS"
value_observed = "not soluble"

[[record]]
input_sequence = "MGSDKIHHHHHHMKGFDAKFRDFPDYIVGITKEIWEDRGIATLHEYYAEDIVVRSPASVVTGNQGVIAATMATLAEFPDRVLLGEDVIWSGTPEDGMLSSHRIISQATHAGDGVYGAATGKRLEYRILADCHAKNNAIDDEWLIRDQTAIVTQLGWTPRDYAADLIMREGGPEACVKPLTPDTDQPGPYKGRGNDNPWGERLADVLTRIMGADMAAIPEVYDRACHLEYPGHVTAHGPAEADRFWMSLRAAFPNAAFTIDHQIGREDDHMPPRAAIRWSLHGTHEGWGGFGQPTGAEVYIVGITHAEFGQVGTAEPKLRREYTLFDETSVWKQILLHEAAK"
value_observed = "not soluble"


The recorded soluble on expression in E. coli for entry GMNNSLAFNHDTLPQKVMFGYGKSSAFLKQEVERRGSAKVMVIAGEREMSIAHKVASEIEVAIWHDEVVMHVPIEVAERARAVATDNEIDLLVCVGGGSTIGLAKAIAMTTALPIVAIPTTYAGSEATNVWGLTEAARKTTGVDLKVLPETVIYDSELTMSLPVEMSVASGLNGLAHCIDSLWGPNADPINAVLAAEGIRALNQGLPKIVANPHSIEGRDEALYGAYLAAVSFASAGSGLHHKICHTLGGTFNLPHAQTHATVLPYVLAFNAGDAPEAERRAAAAFGTDTALEGLQRLRLSVNAPKRLSDYGFEASGIAEAVDVTLEKVPANNPRPVTRENLSRLLEAALNGEDPAVLSAVLSN equals soluble

Entry under test: MRVAVVGATGAVGREILKVLEARNFPLSELRLYASPRSAGVRLAFRGEEIPVEPLPEGPLPVDLVLASAGGGISRAKALVWAEGGALVVDNSSAWRYEPWVPLVVPEVNREKIFQHRGIIANPNCTTAILAMALWPLHRAFQAKRVIVATYQAASGAGAKAMEELLTETHRFLHGEAPKAEAFAHPLPFNVIPHIDAFQENGYTREEMKVVWETHKIFGDDTIRISATAVRVPTLRAHAEAVSVEFARPVTPEAAREVLKEAPGVEVVDEPEAKRYPMPLTASGKWDVEVGRIRKSLAFENGLDFFVVGDQLLKGAALNAVQIAEEWLKGA . Its soluble on expression in E. coli was soluble
